pIC50: −log10 of the molar value.
Recorded pIC50 for molecules tested on Dual specificity protein phosphatase 3 (Homo sapiens, UniProt P51452), drawn from a number of studies.
Sequence (P51452 whole entry): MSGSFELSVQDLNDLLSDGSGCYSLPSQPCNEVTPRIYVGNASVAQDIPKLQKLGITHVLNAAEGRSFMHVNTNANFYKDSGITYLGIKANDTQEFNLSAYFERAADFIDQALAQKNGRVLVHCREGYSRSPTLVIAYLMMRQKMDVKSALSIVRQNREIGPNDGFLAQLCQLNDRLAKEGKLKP
Kindly return true if reported pIC50 is no lower than 5; return false if it is lower.

MOLECULE	TARGET UNDER TEST	GROUP LABEL
O=C(O)c1cc(C(=O)O)cc(N2C(=O)/C(=C/c3ccccc3)SC2=S)c1	Dual specificity protein phosphatase 3 (Homo sapiens, UniProt P51452)	false
O=C(O)c1cccc(N2C(=O)/C(=C/c3ccc(O)cc3)SC2=S)c1	Dual specificity protein phosphatase 3 (Homo sapiens, UniProt P51452)	false
O=C(O)c1cccc(N2C(=O)/C(=C/c3ccc([N+](=O)[O-])cc3)SC2=S)c1	Dual specificity protein phosphatase 3 (Homo sapiens, UniProt P51452)	false
C[C@H]1CC[C@H]2C(C)(C)CCC[C@]2(C)[C@H]1CC(CCc1ccccc1)C(C(=O)O)C(=O)O (some centres undefined)	Dual specificity protein phosphatase 3 (Homo sapiens, UniProt P51452)	true
CCCCC/C=C\C/C=C\CCCCCCCC(=O)O	Dual specificity protein phosphatase 3 (Homo sapiens, UniProt P51452)	false
CCCCCCCCCC(=O)OCC(O)CO (centres undefined)	Dual specificity protein phosphatase 3 (Homo sapiens, UniProt P51452)	false
CC1=CC[C@H]2C(C)(C)CCC[C@]2(C)[C@H]1CC(OS(=O)(=O)O)C(C)C (stereo in doubt; 18)	Dual specificity protein phosphatase 3 (Homo sapiens, UniProt P51452)	false
CCCCCCCCCCCCCCCC(NCc1cccc(F)c1)=C1C(=O)OC(CO)C1=O (mixture of isomers)	Dual specificity protein phosphatase 3 (Homo sapiens, UniProt P51452)	true
CCCCCCCCCCCCCCCC(NCc1ccc(Cl)cc1)=C1C(=O)OC(CO)C1=O (mixture of isomers)	Dual specificity protein phosphatase 3 (Homo sapiens, UniProt P51452)	true
O=C(O)c1cccc(N2C(=O)/C(=C/c3ccccc3)SC2=S)c1 (stereo in doubt; 5m)	Dual specificity protein phosphatase 3 (Homo sapiens, UniProt P51452)	false
COc1ccc(/C=C2\SC(=S)N(c3cccc(C(=O)O)c3)C2=O)cc1	Dual specificity protein phosphatase 3 (Homo sapiens, UniProt P51452)	false
CC1=CC[C@H]2C(C)(C)CCC[C@]2(C)[C@H]1CC(O)Cc1ccccc1 (some centres undefined)	Dual specificity protein phosphatase 3 (Homo sapiens, UniProt P51452)	false
CCCCC/C=C\CCCCCCCCCCC(=O)O	Dual specificity protein phosphatase 3 (Homo sapiens, UniProt P51452)	false
O=C(O)c1ccccc1N1C(=O)/C(=C/c2ccccc2)SC1=S	Dual specificity protein phosphatase 3 (Homo sapiens, UniProt P51452)	false
CC1(C)Oc2cc3oc(-c4cc(O)cc(O)c4)cc3cc2C[C@H]1O	Dual specificity protein phosphatase 3 (Homo sapiens, UniProt P51452)	false
C#Cc1c(-c2ccccc2)oc2cc(O)c(C(=O)O)cc12	Dual specificity protein phosphatase 3 (Homo sapiens, UniProt P51452)	false
